- Assayed system: CaBem1-D1
- Method: SPOT peptide array binding signal intensity (averaged, normalized) (arbitrary units (background-subtracted, floor 0; scale differs between SH3 domains)); higher = stronger binding of the SH3 domain to the peptide
Short version: SPOT peptide array binding signal intensity at least 10 is Yes, less is No.

• ALKQKKIPPPFKPHL = No

Determine whether this binder has SPOT peptide array binding signal intensity no lower than 10: FSRRQSMDIPSKNRN Yes

Determine whether this binder has SPOT peptide array binding signal intensity no lower than 10: NIKVLLNPKLGKPVK No

Determine whether this binder has SPOT peptide array binding signal intensity no lower than 10: LASNSPPVYPKRIRH No

Determine whether this binder has SPOT peptide array binding signal intensity no lower than 10: VTHRLRISIPGITGR Yes

Determine whether this binder has SPOT peptide array binding signal intensity no lower than 10: MPAPPPPPPPPPGAF Yes

Determine whether this binder has SPOT peptide array binding signal intensity no lower than 10: RLPAPPPPPRRGPAP Yes

Determine whether this binder has SPOT peptide array binding signal intensity no lower than 10: ISPPASPPPEFDFSK No

Determine whether this binder has SPOT peptide array binding signal intensity no lower than 10: APPLPPTAPPPPSLP No

Determine whether this binder has SPOT peptide array binding signal intensity no lower than 10: KDKKTKPTPPPKPSH No

Determine whether this binder has SPOT peptide array binding signal intensity no lower than 10: ERPKRRAPPPVPKKP Yes

Determine whether this binder has SPOT peptide array binding signal intensity no lower than 10: FPGKKSPRLPHRNKK Yes

Determine whether this binder has SPOT peptide array binding signal intensity no lower than 10: PIVPSSPAPPLPLSG No

Determine whether this binder has SPOT peptide array binding signal intensity no lower than 10: RKLRTVPGVPLIHLT No

Determine whether this binder has SPOT peptide array binding signal intensity no lower than 10: KNRKNLPTIPIRLSG Yes

Determine whether this binder has SPOT peptide array binding signal intensity no lower than 10: SKSRLLIELPEGFFT No

Determine whether this binder has SPOT peptide array binding signal intensity no lower than 10: GDHPKGPPPPPPPPD No

Determine whether this binder has SPOT peptide array binding signal intensity no lower than 10: TKRKRPARLIFYDSK Yes

Determine whether this binder has SPOT peptide array binding signal intensity no lower than 10: SKIRPTPRKPSRMAT Yes

Determine whether this binder has SPOT peptide array binding signal intensity no lower than 10: PELAPKREAPKPPAN No

Determine whether this binder has SPOT peptide array binding signal intensity no lower than 10: AERNYAPRLPRRETS Yes
